Target: human kisspeptin receptor (Homo sapiens (Human))
Sequence (Q969F8 whole entry): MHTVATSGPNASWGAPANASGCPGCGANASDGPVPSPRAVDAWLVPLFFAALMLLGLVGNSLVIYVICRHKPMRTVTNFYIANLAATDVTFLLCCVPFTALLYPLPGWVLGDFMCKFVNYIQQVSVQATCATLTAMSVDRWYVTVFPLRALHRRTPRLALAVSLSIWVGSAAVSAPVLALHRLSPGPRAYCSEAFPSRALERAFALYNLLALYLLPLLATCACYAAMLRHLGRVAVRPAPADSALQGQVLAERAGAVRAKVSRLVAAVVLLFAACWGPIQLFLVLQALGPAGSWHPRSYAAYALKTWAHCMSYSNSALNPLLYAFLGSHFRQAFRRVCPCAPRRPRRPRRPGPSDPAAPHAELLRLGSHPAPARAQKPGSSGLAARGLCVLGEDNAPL
Test: Human KISS1R binding assay (membrane competition binding)
Details: 90 min at room temperature; competition with 0.2 nM [125I]-metastin (45-54); Flp-In T-Rex 293 kisspeptin membranes; metal complexes nonradioactive Ga, In, Lu; read-out: hKiSSR Binding Ki (90 min)
Protocol: Crude membrane fractions are prepared from Flp-In T-Rex 293 (Thermo Fisher) cell line expressing the human kisspeptin receptor. The cells are grown to 85-100% confluence on standard tissue culture dishes in Dulbecco's Modified Eagles Medium (DMEM) (Corning) supplemented with 10% FBS (Gemini), 1% penicillin-streptomycin-glutamine (Gibco), 500 μg/mL hygromycin, and 15 μg/mL blastacidin. […]
Numbered stars: 1 amine (or outer) side, 2 acyl side, 3 side chain; on linkers, the order of the positions; unused ones are H or OH. Square brackets hold non-standard residues; d marks the D form. Peptide text beside a SMILES is read from it. * marks the point of attachment. DOTA = O=C(O)CN1CCN(CC(=O)O)CCN(CC(=O)*)CCN(CC(=O)O)CC1; Gly(N-(3-F-4-Me-benzyl)) = Cc1ccc(CNCC(=O)*)cc1F; Api(1-amidino) = N=C(N)N1CCC(N)(C(=O)O)CC1; Phe(4-CN) = N#Cc1ccc(C[C@H](N)C(=O)O)cc1; Phe(3-F) = N[C@@H](Cc1cccc(F)c1)C(=O)O; d2Nal = N[C@H](Cc1ccc2ccccc2c1)C(=O)O; Palmitoyl = CCCCCCCCCCCCCCCC(=O)*; Trx = NC[C@H]1CC[C@H](C(=O)O)CC1; X1 = O=C(CN1CCC(N[*:1])CC1)[*:2]; Cha = N[C@@H](CC1CCCCC1)C(=O)O; Lauroyl = CCCCCCCCCCCC(=O)*; Api = NC1(C(=O)O)CCNCC1; X13 = O=C(CNCC1CCSCC1)*; Ahx = NCCCCCC(=O)O; azaGly = NNC(=O)O; βAla = NCCC(=O)O
This section presents compounds with their documented Ki values.

Check out these entries, answers already filled in.
- compound: "Cc1ccc(CNCC(=O)N2CCC(NC(=O)[C@H](CC(C)C)NC(=O)NNC(=O)[C@H](Cc3ccccc3)NC(=O)[C@@H](CC(N)=O)NC(=O)[C@@H](CCC(=O)O)NC(=O)[C@@H](CCC(=O)O)NC(=O)[C@@H](CC(N)=O)NC(=O)[C@@H](CC(N)=O)NC(=O)CCNC(=O)CN3CCN(CC(=O)O)CCN(CC(=O)O)CCN(CC(=O)O)CC3)(C(=O)N[C@@H](Cc3c[nH]c4ccccc34)C(N)=O)CC2)cc1F [Compound 15] ({DOTA-βAla}-[dN][dN][dE][dE][dN]F[azaGly]L[Api](Gly(N-(3-F-4-Me-benzyl)))W-NH2)"
  result: "> 100 nM"
- compound: "Cc1ccc(CNCC(=O)N2CCC(NC(=O)[C@H](CC(C)C)NC(=O)NNC(=O)[C@H](Cc3ccccc3)NC(=O)CN3CCC(NC(=O)CN4CCN(CC(=O)O)CCN(CC(=O)O)CCN(CC(=O)O)CC4)CC3)(C(=O)N[C@@H](Cc3ccc(C#N)cc3)C(N)=O)CC2)cc1F [Compound 244] ({DOTA}-[X1]F[azaGly]L[Api](Gly(N-(3-F-4-Me-benzyl)))[Phe(4-CN)]-NH2)"
  result: "< 10 nM"
- compound: "CC(C)C[C@H](NC(=O)NNC(=O)[C@H](CC1CCCCC1)NC(=O)[C@@H](NC(=O)[C@H](CC(N)=O)NC(=O)[C@@H](Cc1ccc2ccccc2c1)NC(=O)[C@@H](Cc1ccc(O)cc1)NC(=O)CCCCCNC(=O)CN1CCN(CC(=O)O)CCN(CC(=O)O)CCN(CC(=O)O)CC1)[C@@H](C)O)C(=O)NC1(C(=O)N[C@@H](Cc2c[nH]c3ccccc23)C(N)=O)CCN(C(=N)N)CC1 [Compound 317] ({DOTA-Ahx}-[dY][d2Nal]NT[Cha][azaGly]L[Api(1-amidino)]W-NH2)"
  result: "< 10 nM"
- compound: "CC(C)C[C@H](NC(=O)NNC(=O)[C@H](Cc1ccccc1)NC(=O)[C@@H](NC(=O)[C@H](CC(N)=O)NC(=O)[C@@H](Cc1ccc2ccccc2c1)NC(=O)[C@@H](Cc1ccc(O)cc1)NC(=O)CCCCCNC(=O)CN1CCN(CC(=O)O)CCN(CC(=O)O)CCN(CC(=O)O)CC1)[C@@H](C)O)C(=O)NC1(C(=O)N[C@H](Cc2c[nH]c3ccccc23)C(N)=O)CCN(C(=O)CNCC2CCSCC2)CC1 [Compound 375] ({DOTA-Ahx}-[dY][d2Nal]NTF[azaGly]L[Api](X13)[dW]-NH2)"
  result: "> 100 nM"
- compound: "Cc1ccc(CNCC(=O)N2CCC(NC(=O)[C@H](CC(C)C)NC(=O)NNC(=O)[C@H](Cc3ccccc3)NC(=O)[C@@H](NC(=O)[C@H](CC(N)=O)NC(=O)CCCCCNC(=O)CN3CCN(CC(=O)O)CCN(CC(=O)O)CCN(CC(=O)O)CC3)[C@@H](C)O)(C(=O)N[C@@H](Cc3c[nH]c4ccccc34)C(N)=O)CC2)cc1F [Compound 26] ({DOTA-Ahx}-NTF[azaGly]L[Api](Gly(N-(3-F-4-Me-benzyl)))W-NH2)"
  result: "< 10 nM"

Challenge: Which measured Ki value corresponds to Cc1ccc(CNCC(=O)N2CCC(NC(=O)[C@H](CC(C)C)NC(=O)NNC(=O)[C@H](Cc3cccc(F)c3)NC(=O)[C@@H](NC(=O)[C@H](CC(N)=O)NC(=O)[C@H](CCC(=O)O)NC(=O)[C@H]3CC[C@H](CNC(=O)CN4CCN(CC(=O)O)CCN(CC(=O)O)CCN(CC(=O)O)CC4)CC3)[C@@H](C)O)(C(=O)N[C@@H](Cc3c[nH]c4ccccc34)C(N)=O)CC2)cc1F [Compound 160] ({DOTA-Trx}-ENT[Phe(3-F)][azaGly]L[Api](Gly(N-(3-F-4-Me-benzyl)))W-NH2) ?
Response given: < 10 nM

Challenge: Reported Ki, compound Cc1ccc(CNCC(=O)N2CCC(NC(=O)c3ccc(-c4ccccc4)c(OCCNNC(=O)[C@H](Cc4ccccc4)NC(=O)CCCCCNC(=O)CN4CCN(CC(=O)O)CCN(CC(=O)O)CCN(CC(=O)O)CC4)c3)(C(=O)N[C@@H](Cc3c[nH]c4ccccc34)C(N)=O)CC2)cc1F [Compound 280] : ____
Response given: > 100 nM

Challenge: Requested field: Ki. Item: CCCCCCCCCCCCCCCC(=O)N[C@H](Cc1ccc(O)cc1)C(=O)N[C@@H](CCCCNC(=O)CN1CCN(CC(=O)O)CCN(CC(=O)O)CCN(CC(=O)O)CC1)C(=O)N[C@@H](CC(N)=O)C(=O)N[C@H](C(=O)N[C@@H](Cc1ccccc1)C(=O)NNC(=O)N[C@@H](CC(C)C)C(=O)NC1(C(=O)N[C@@H](Cc2ccc(O)cc2)C(N)=O)CCN(C(=N)N)CC1)[C@@H](C)O [Compound 330] (Palmitoyl-[dY]K(DOTA)NTF[azaGly]L[Api(1-amidino)]Y-NH2)
Response given: < 10 nM

Challenge: Could you tell me which Ki is on file for CCCCCCCCCCCC(=O)N[C@H](Cc1ccc(O)cc1)C(=O)N[C@@H](CCCCNC(=O)CN1CCN(CC(=O)O)CCN(CC(=O)O)CCN(CC(=O)O)CC1)C(=O)N[C@@H](CC(N)=O)C(=O)N[C@H](C(=O)N[C@@H](Cc1ccccc1)C(=O)NNC(=O)N[C@@H](CC(C)C)C(=O)NC1(C(=O)N[C@@H](Cc2c[nH]c3ccccc23)C(N)=O)CCN(C(=N)N)CC1)[C@@H](C)O [Compound 329] (Lauroyl-[dY]K(DOTA)NTF[azaGly]L[Api(1-amidino)]W-NH2) ?
Response given: < 10 nM
